Entry source: the supplement of paper PMC9732359

experiment: protein stability index of a GFP-peptide fusion (yeast GPS) (PSI 1-4); higher = more stable; sorted into four equal gates, so the index is relative within each strain; conditions: ubr1∆
metric-name: protein stability index
Answers are plain numbers.

Past entries and their recorded results:
monomer-sequence: SSTKDYLTPPHECRLRD [RET1]
protein stability index: 3.25
--
monomer-sequence: TDLENSSLFQEKLLETN [ECM29]
protein stability index: 2.68
--
monomer-sequence: VITPHFITNVQSISQNS [SWI1]
protein stability index: 1.73
--
monomer-sequence: SLISVLEASLNSITKDN [YJL039C/NUP192]
protein stability index: 2.09
--
monomer-sequence: RFRKAQCPIIERLTNSL [RPS5]
protein stability index: 2.07

Field: protein stability index. Fill in for each record below.
1. EFMAGFNIISMTLKEMY [SMC4]
2. DNTVRTSANGIVQFTYG [RPO31]

3.21
2.53

---

experiment: protein stability index of a GFP-peptide fusion (yeast GPS) (PSI 1-4); higher = more stable; sorted into four equal gates, so the index is relative within each strain; details: pdr5∆
Please go through the items and note down their protein stability index.
Numbers only.

Consider the reported protein stability index for these sequences:
monomer-sequence: GELFLNESWKSSFEKFN [SRP72]
numeric-result: 3.22
--
monomer-sequence: LPLRLQFNEFIQIMANI [PGD1]
numeric-result: 1.51
--
monomer-sequence: QPQHPHYVSTSKISQMA [YLR018C/POM34]
numeric-result: 2.17

Quick batch: protein stability index for everything below.
1. AEKELEAEIECFDSTTG [RRP40]
2. QPKLNPMASSSSFGSES [SWI1]
3. GEIQLLFQRQKLHEFYL [IRR1]
4. IYNSTDSNSEILNFLNQ [YML103C/NUP188]
5. VVKGLPDISRAVINIRD [RPO31]
6. TQSYNNQNTLKEISARR [POP1]

1. 3.06
2. 3.28
3. 2.96
4. 2.72
5. 2.23
6. 2.48

---

assay: protein stability index of a GFP-peptide fusion (yeast GPS) (PSI 1-4); higher = more stable; sorted into four equal gates, so the index is relative within each strain; conditions: pdr5∆
Assign protein stability index to each entry below.
Numbers only.

Working through the 5 sequences below one at a time, give protein stability index for each.
1. GSNNAQTSRGLFGNNNT [YGL172W/NUP49]
2. CKEVGITAVHVKIRATG [RPS14A]
3. DDVVVLTGEAEIEQPVT [FAS1]
4. TSEMKVLSIPPANHLQS [YGL100W/SEH1]
5. TDLRLSTNGLGMCQLYF [SNU114]

1. 3.25
2. 1.82
3. 3.27
4. 2.15
5. 3.52

---

Consider the following sequences; for each one, report its protein stability index.
assay: protein stability index of a GFP-peptide fusion (yeast GPS) (PSI 1-4); higher = more stable; sorted into four equal gates, so the index is relative within each strain; settings: doa10∆

Take a look at these entries with their results.
monomer-sequence: FKGTDFVHSVKKFLRVR [SRB4]
result: 2.66

monomer-sequence: GAMTPEEIFFKSVRILK [RPC40]
result: 2.9

Look at each sequence and report its protein stability index.
1. ASITPYKLVNKNKENNT [RPN4]
2. DSTSHNNGSSDKSLDSS [MED1]
3. MLETAGFSMNNPYNIVP [SMC3]
4. FNTEAEQTVSAVTEATS [RGR1]
5. DVQKSSDSSSEDEVKVE [YLR335W/NUP2]

1. 1.08
2. 3.04
3. 3.17
4. 2.67
5. 2.7

---

assay: protein stability index of a GFP-peptide fusion (yeast GPS) (PSI 1-4); higher = more stable; sorted into four equal gates, so the index is relative within each strain; details: ubr1∆
Field: protein stability index. Provide a value for each of the sequences that follow.
Give bare numbers.

monomer-sequence: TSDLVKSLGLKLPLSVI [RPS17A]
numeric-result: 1.95

For each entry beneath this line, provide reported protein stability index.
1. SFLEGSKALNSILESSM [RGR1]
2. IQDSNGDVKNMEDVKIQ [SWI3]

[2.02, 2.94]

For every record below, what is its protein stability index?
1. REKNALKRLAWQYIVID [ISW2]
2. GDYSQATVLSRKILKKT [RPN5]
3. QTRAKLLDNEIRIFRSE [RPT5]
4. GKMVRAQDVALAKKWFL [PRP8]

1: 2.03; 2: 2.95; 3: 2.95; 4: 3.05

---

assay: protein stability index of a GFP-peptide fusion (yeast GPS) (PSI 1-4); higher = more stable; sorted into four equal gates, so the index is relative within each strain; details: san1∆
# cutoff 3 applies to protein stability index; >= gives met, < gives not met

Please check the record TAELIKELKEKEAAESP [PUP2] and state if its protein stability index is at or above 3.
met

Item CHDELKALPMLEQVEFE [MED4] with protein stability index of 3 or above?
not met

I'd appreciate it if you could say whether PANHLQSDFCLSWCPSR [YGL100W/SEH1] has protein stability index at least equal to 3.
not met

Could you tell me if the measured protein stability index of LTLMEKAAFEDLKSKGL [FAS1] reaches 3 or more?
met

Answer whether protein stability index of YNRYRDLMISCLMNQET [MTR3] is greater than or equal to 3.
not met

In plain terms: is recorded protein stability index at least 3 for GVDDQILATNSLRILAK [YJL039C/NUP192] ?
met

Has QQQPQPQYNMNMGMNNM [PGD1] a recorded protein stability index greater than or equal to 3?
met

Has FRYITTWENEFLDSQRV [PRP8] a recorded protein stability index greater than or equal to 3?
not met

Would you say VTPIIDGIVVKNAVVRS [ARP7] shows protein stability index at minimum 3?
not met

---

assay: protein stability index of a GFP-peptide fusion (yeast GPS) (PSI 1-4); higher = more stable; sorted into four equal gates, so the index is relative within each strain; settings: ubr1∆
metric-name: protein stability index
One number for each entry.

Field: example entries. Status: answers known.
monomer-sequence: PSLKAHFTEIKLNKVDK [SIR3]
protein stability index: 2.08

monomer-sequence: IWLIKCCYFIEWKSNHK [SRB8]
protein stability index: 2.59

monomer-sequence: EAVIDEKLEVIADELMK [ITC1]
protein stability index: 3.27

monomer-sequence: NMEIRNLRLKILTIIEE [GRR1]
protein stability index: 1.33

monomer-sequence: ALENDVATNIVNEDPIF [YML103C/NUP188]
protein stability index: 3.05

For every record below, what is its protein stability index?
1. SKLLVPQKNVKIQVVDR [PRE10]
2. LKKVQQQQQAAALANAN [SWI1]
3. IERIGHLLSINYGEKEE [PCI8]

1. 2.72
2. 1.78
3. 1.18

Please state protein stability index for every sequence in the list that follows.
1. YAKFKRNTMMIQCQIDK [RGR1]
2. NTEITQKSSKENIENEE [ECM29]
3. SASLFKQRKNPRRIAWT [RPL24A]
4. GIKVLPETCLFVSYFGK [YML103C/NUP188]
5. RQFSNEEVNRCYLRWQH [SNF2]
6. GTLWAHVLKTVDYGGAE [SNU114]

1. 2.34
2. 2.94
3. 3.08
4. 2.68
5. 3.01
6. 1.36

Provide reported protein stability index for each item, in the same order as listed.
1. NLGIPKIAYRGVKDCQE [SSN2]
2. IPQDFENEVSDIDVTIV [ESC2]
3. LIKFVDLSRNGRNGSNG [NUT1]
4. WSFYNGNVLINDTLPDE [SNU114]
5. FGKLLQAYQFLNTFGSK [ITC1]

1: 1.13; 2: 2.42; 3: 3.2; 4: 1.7; 5: 1.31

Provide protein stability index for all items below, preserving their order.
1. STVSGELNDNPAWFNNP [YMR153W/NUP53]
2. QQQLQQNSKEKNGLGLN [MED2]
3. MPKKRASNGRNKKGRGH [RPS26A]
4. IDPDTKAPNAVVITFEK [RPB11]
5. PKDYIKKLLEVHDIFSK [CDC53]
6. HGGKMKPEIDENGTLLV [RPR2]
7. KEMTLQKNMNDLLRSQL [YIL149C/MLP2]

1. 3.35
2. 2.96
3. 3.5
4. 2.93
5. 1.66
6. 2.97
7. 2.64

---

experiment: protein stability index of a GFP-peptide fusion (yeast GPS) (PSI 1-4); higher = more stable; sorted into four equal gates, so the index is relative within each strain; settings: doa10∆
Mark Condition not met for protein stability index values under 3, and Condition met for everything at or above.

Solved entries:
monomer-sequence: AAGYGKILGKGRIPNVP [RPL28]
assigned-class: Condition met

monomer-sequence: DFIDTATRHVLMRQGVL [RPS3]
assigned-class: Condition met

monomer-sequence: IKLGSTAIGIATKEGVV [PUP2]
assigned-class: Condition not met

Identify whether the reported protein stability index of the following sequence is 3 or greater: EPDLESQISKAEMEADS [SMC4]
Condition not met

Does EGEAKQKRNAHGYFLQD [ITC1] have a reported protein stability index of at least 3?
Condition met
